# TARGET UNDER TEST: shADAM9-His (His-tagged soluble human ADAM9) (human) (UniProt Q13443)
# EXPERIMENTAL PROTOCOL: BIACORE SPR; antibody captured on Fab2 goat anti-human Fc surface, shADAM9-His 6.25-100 nM as analyte; 1:1 Langmuir
Measured Kd, listed per entry.
Entry rule: numbers only, all in nM.

Example binders with recorded Kd:
BINDER: hMAB-A (3.3) (antibody, V domains shown) VH: EVQLVESGGGLVKPGGSLRLSCAASGFTFSSYWMHWVRQAPGKGLEWVGEIIPIFGHTNYNERFQGRFTISLDNSKNTLYLQMGSLRAEDTAVYYCARGGYYYYGSRDYFDYWGQGTTVTVSS VL: DIVMTQSPDSLAVSLGERATISCRASQSVDYSGDSYMNWYQQKPGQPPKLLIYAASDLESGIPARFSGSGSGTDFTLTISSLEPEDFATYYCQQSHEDPFTFGQGTKLEIK
Kd [nM]: 1.4

BINDER: hMAB-A (4.4) (antibody, V domains shown) VH: EVQLVESGGGLVKPGGSLRLSCAASGFTFSSYWIHWVRQAPGKGLEWVGEIIPIFGHTNYNERFQGRFTISLDNSKNTLYLQMGSLRAEDTAVYYCARGGYYYYGSRDYFDYWGQGTTVTVSS VL: DIVMTQSPDSLAVSLGERATISCRASQSVDYSGDSYLNWYQQKPGQPPKLLIYAASDLESGIPARFSGSGSGTDFTLTISSLEPEDFATYYCQQSYSTPFTFGQGTKLEIK
Kd [nM]: 2

Okay, now this binder:
Request: Please look up its Kd: hMAB-A (2.2) (antibody, V domains shown) VH: EVQLVESGGGLVKPGGSLRLSCAASGFTFSSYWMHWVRQAPGKGLEWVGEIIPIFGHTNYNEKFKSRFTISLDNSKNTLYLQMGSLRAEDTAVYYCARGGYYYYGSRDYFDYWGQGTTVTVSS VL: DIVMTQSPDSLAVSLGERATISCKASQSVDYSGDSYMNWYQQKPGQPPKLLIYAASDLESGIPARFSGSGSGTDFTLTISSLEPEDFATYYCQQSHEDPFTFGQGTKLEIK
Response: 1.4
